system: SF-539 CNS; test: NCI tumour cell line growth inhibition, 48 h
quantity: GI50

// below: answered compounds
Reading of GI50 for O=C(N/N=C/c1ccc(N(CCCl)CCCl)cc1)c1ccc(C(=O)N/N=C/c2ccc(N(CCCl)CCCl)cc2)cc1 with SF-539 CNS: 0.612 µM

Reading of GI50 for O=C(/C=C/c1ccc(Cl)cc1Cl)c1ccc(Cl)cc1Cl with SF-539 CNS: 20.7 µM

Reading of GI50 for COc1ccc(S(=O)(=O)Nc2cc(Sc3cccc4cccnc34)c(O)c3ccccc23)cc1 with SF-539 CNS: 1.49 µM

Reading of GI50 for Cc1cn2cc(-c3ccc4c(c3)CC(=O)N4)nc2s1 with SF-539 CNS: > 100 µM

Reading of GI50 for COc1cc2c(=O)n(CC3CCCCC3)c3c4cc[nH]c4ncc3c2cc1OC with SF-539 CNS: 0.681 µM

More entries:
Reading of GI50 for C1CC[N-]CC1.CC(=N\O)/C(C)=N/O.CC(=N\O)/C(C)=N/O.C[CH-]C(C)O.[Co+2] with SF-539 CNS: 24 µM

Reading of GI50 for COc1ccc(C2C3=C(COC3=O)N(CCO)c3cc4c(cc32)CCC4)cc1 (centres undefined) with SF-539 CNS: 5.09 µM

Reading of GI50 for C[C@@H]1Cc2c(ccc3[nH]ncc23)[C@@H](c2ccc(NC3CN(CCCF)C3)cn2)N1CC(F)(F)F with SF-539 CNS: 16.9 µM

Reading of GI50 for N=C(N)c1ccc(-c2ccc(-c3ccc(Cl)cc3Cl)s2)nc1 with SF-539 CNS: 1.66 µM

###

Form field: TGI (one value per entry).
test system: M19-MEL melanoma; assay: NCI tumour cell line growth inhibition, 48 h

// below: answered molecules
The molecule identified as N#C/C(=C1\OC(N)=C(c2ccc(Cl)cc2)C1=O)c1ccc(Cl)cc1 registered its TGI at 31.4 µM

The molecule identified as OC(CCl)CN1CC[N+]2(CC1)CC[N+]1(CCN(CC(O)CCl)CC1)CC2 (stereo not drawn) registered its TGI at > 50 µM

The molecule identified as CC1=C2C3OC(=O)C(C)C3C(O)C[C@@]2(C)C(=O)CC1 (stereo partly drawn) registered its TGI at > 100 µM

More entries:
The molecule identified as C=CCO[C@H]1CC[C@@]2(C)C(CC[C@]3(C)C2CC=C2[C@@H]4[C@@H](C)C(C)CC[C@]4(C(=O)O)CCC23C)C1(C)C (stereo partly drawn) registered its TGI at 35.7 µM

The molecule identified as Nc1ncc2c(n1)-c1ccccc1OC2 registered its TGI at > 100 µM

The molecule identified as CCOC(=O)CC(C)C1(C=O)CCCCC1=O (stereo not drawn) registered its TGI at > 100 µM

The molecule identified as Cc1nc(-n2nc(-c3ccccc3)cc2-c2ccccc2)sc1C(=O)/C=C/c1cccc([N+](=O)[O-])c1 registered its TGI at 30.4 µM

The molecule identified as CN(C)C(=S)/N=c1\ss/c(=N\S(=O)(=O)c2ccccc2)n1C registered its TGI at > 100 µM

The molecule identified as CC/C(C)=C1\CCC(CN(C)C)C1=O (stereo not drawn) registered its TGI at 32.6 µM

The molecule identified as C=CCCC(=O)CC(=O)OCc1ccccc1 registered its TGI at > 100 µM

The molecule identified as NC1=Nc2ccccc2Sc2ccccc21 registered its TGI at > 100 µM

The molecule identified as CC1=CC(=O)N2C(OC[C@@H]2c2ccccc2)O1 (stereo partly drawn) registered its TGI at > 100 µM

The molecule identified as Cc1cc(OCC(O)CO)ccc1Cl (stereo not drawn) registered its TGI at > 100 µM

Data origin: PubChem BioAssay (NCI)
